Entries and their measured polymerase ribozyme fitness (log ratio) follow.
B1: TPR 5TU (parent)
chain: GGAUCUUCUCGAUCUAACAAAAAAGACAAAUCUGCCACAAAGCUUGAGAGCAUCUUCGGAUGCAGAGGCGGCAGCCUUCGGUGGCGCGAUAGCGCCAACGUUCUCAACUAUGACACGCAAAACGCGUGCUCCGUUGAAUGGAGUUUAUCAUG

variants of: B1; experiment: polymerase ribozyme fitness, log enrichment relative to wild type (log ratio); higher = more active; in vitro selection for triplet polymerase activity
Fewer inactive variants are shown than the library holds.
measureName: polymerase ribozyme fitness (log ratio)

{"columns": ["variantCode", "result"],
 "data": [
  ["C57A C72U A150U", -0.157],
  ["A41C C57U A89U G92C C116G C125A", "≤ -4.2"],
  ["A22U U31G C54G C85U U146C", -0.611],
  ["G11U C18G G58C A60C U78C G83A C96U A115C", "≤ -4.2"],
  ["A12G U56A U144A", 0.103],
  ["C85U A150C G152U", -3.38],
  ["U15A C85A", -1.53],
  ["U56A G141A", 0.775],
  ["A23U G25C A52C U55A A122C", "≤ -4.2"],
  ["U15C A19C A91U", -3.68],
  ["U6G A26C G136A A142U U146A", "≤ -4.2"],
  ["A52C G70C C85U G94C C129A", "≤ -4.2"],
  ["U53A G58C A73U C95A", "≤ -4.2"]
]}
